Target of assay: Endothelial lipase (EL) (Homo sapiens)
Construct: HT-1080 cells that were transformed using RAGE technology (Athersys) to overexpress endogenous EL; endogenous in cells; conditioned medium used
Sequence (Q9Y5X9 21-500): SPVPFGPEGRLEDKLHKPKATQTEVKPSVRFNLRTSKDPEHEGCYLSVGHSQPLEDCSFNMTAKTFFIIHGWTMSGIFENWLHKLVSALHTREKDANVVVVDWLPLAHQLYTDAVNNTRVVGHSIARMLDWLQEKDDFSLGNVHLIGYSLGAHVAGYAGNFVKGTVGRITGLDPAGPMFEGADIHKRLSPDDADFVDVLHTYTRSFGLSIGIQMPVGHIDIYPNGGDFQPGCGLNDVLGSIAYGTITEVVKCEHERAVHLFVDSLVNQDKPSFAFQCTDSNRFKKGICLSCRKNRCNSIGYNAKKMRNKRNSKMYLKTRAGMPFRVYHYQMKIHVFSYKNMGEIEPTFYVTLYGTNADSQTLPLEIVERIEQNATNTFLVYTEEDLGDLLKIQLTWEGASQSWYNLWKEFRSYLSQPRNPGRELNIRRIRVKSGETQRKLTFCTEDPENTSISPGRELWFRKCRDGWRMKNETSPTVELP
Assay explanation: Endothelial lipase (EL) enzymatic assay, fluorescent substrate A10070 in DMPG vesicles
Assay type: biochemical
Test conditions: EL IC50, EL from conditioned media of HT-1080 cells; compound preincubated 30 min at 37° C
pIC50: −log10 of the molar value.
Property label: pIC50

Query string: Print Endothelial lipase (EL) (Homo sapiens) pIC50 for NS(=O)(=O)NCc1nnc(C(c2nc3ccc(-c4cccc(C(=O)N5CCC(=O)CC5)c4)cc3s2)S(=O)(=O)CCC(F)(F)F)o1 (stereo not shown) [Example 194] .
Result string: > 8.00

====

Target of assay: Endothelial lipase (EL) (Homo sapiens)
Construct: HT-1080 cells that were transformed using RAGE technology (Athersys) to overexpress endogenous EL; endogenous in cells; conditioned medium used
Assay explanation: Endothelial lipase (EL) enzymatic assay, fluorescent substrate A10070 in DMPG vesicles
Format: biochemical
Test conditions: EL from conditioned media of HT-1080 cells; compound preincubated 30 min at 37° C; read-out: EL IC50
Property label: pIC50
Units for pIC50: none; it is -log10 of a concentration expressed in mol/L.

Query string: Print Endothelial lipase (EL) (Homo sapiens) pIC50 for CC1(Cc2nnc(C(c3nc4ccc(-c5ccc(C(=O)N6CCOCC6)cc5)cc4s3)S(C)(=O)=O)o2)NC(=O)NC1=O (single isomer, unassigned; isomer a) [Example 14] .
Result string: 7.92

Query string: Print Endothelial lipase (EL) (Homo sapiens) pIC50 for CS(=O)(=O)C(c1nnc(CNS(N)(=O)=O)o1)c1nc2ccc(-c3cccc(C(=O)N4CC[C@H](O)C4)c3)cc2s1 (stereo partly shown) .
Result string: 7.89

====

Target of assay: Endothelial lipase (EL) (Homo sapiens, UniProt Q9Y5X9)
Construct: HT-1080 cells that were transformed using RAGE technology (Athersys) to overexpress endogenous EL; endogenous in cells; conditioned medium used
Assay explanation: Endothelial lipase (EL) enzymatic assay, fluorescent substrate A10070 in DMPG vesicles
Format: biochemical
Test conditions: EL from conditioned media of HT-1080 cells; compound preincubated 30 min at 37° C; read-out: EL IC50
Experimental: Endothelial lipase (EL) and hepatic lipase (HL) activities were measured using a fluorescent substrate, A10070, (Invitrogen, CA) doped into an artificial vesicle containing DMPG (Avanti Polar Lipids) as the excipient. […] The enzymatic assay was measured using 384-well white Optiplates. […] The reaction rates were measured on a Gemini plate reader with an excitation wavelength of 490 nm and an emission wavelength of 530 nm. […]
Property label: IC50

Query string: Tell me measured IC50 for CC1(Cc2nnc(C(c3nc4ccc(-c5ccc(C(=O)N6CCOCC6)cc5)cc4s3)S(C)(=O)=O)o2)NC(=O)NC1=O (single isomer, unassigned; isomer b) [Example 15] please.
Result string: 65 nM

Query string: Tell me measured IC50 for CC1(CS(=O)(=O)C(c2nnc(CNS(N)(=O)=O)o2)c2nc3ccc(-c4ccc(C(=O)N5CCOCC5)cc4)cc3s2)COC1 (stereo not drawn) please.
Result string: < 10 nM

Query string: Tell me measured IC50 for NS(=O)(=O)NCc1nnc(C(c2nc3ccc(-c4ccccc4)cc3s2)S(=O)(=O)Cc2cccc(Br)c2)o1 (stereo not drawn) please.
Result string: < 10 nM

Query string: Tell me measured IC50 for NS(=O)(=O)Cc1nnc(C(c2nc3ccc(-c4ccccc4)cc3s2)S(=O)(=O)Cc2ccccc2)o1 (stereo not drawn) please.
Result string: < 10 nM

Query string: Tell me measured IC50 for CNC(=O)c1cccc(-c2ccc3nc(C(c4nnc(CC5(C)NC(=O)NC5=O)o4)S(C)(=O)=O)sc3c2)c1 (stereo not drawn) please.
Result string: 10 nM

Query string: Tell me measured IC50 for CC1(Cc2nnc(C(c3nc4ccc(-c5ccnc(F)c5)cc4s3)S(C)(=O)=O)o2)NC(=O)NC1=O (single isomer, unassigned; isomer a) [Example 13] please.
Result string: < 10 nM

====

Target of assay: Endothelial lipase (EL) (Homo sapiens)
Construct: HT-1080 cells that were transformed using RAGE technology (Athersys) to overexpress endogenous EL; endogenous in cells; conditioned medium used
Sequence (Q9Y5X9 21-500): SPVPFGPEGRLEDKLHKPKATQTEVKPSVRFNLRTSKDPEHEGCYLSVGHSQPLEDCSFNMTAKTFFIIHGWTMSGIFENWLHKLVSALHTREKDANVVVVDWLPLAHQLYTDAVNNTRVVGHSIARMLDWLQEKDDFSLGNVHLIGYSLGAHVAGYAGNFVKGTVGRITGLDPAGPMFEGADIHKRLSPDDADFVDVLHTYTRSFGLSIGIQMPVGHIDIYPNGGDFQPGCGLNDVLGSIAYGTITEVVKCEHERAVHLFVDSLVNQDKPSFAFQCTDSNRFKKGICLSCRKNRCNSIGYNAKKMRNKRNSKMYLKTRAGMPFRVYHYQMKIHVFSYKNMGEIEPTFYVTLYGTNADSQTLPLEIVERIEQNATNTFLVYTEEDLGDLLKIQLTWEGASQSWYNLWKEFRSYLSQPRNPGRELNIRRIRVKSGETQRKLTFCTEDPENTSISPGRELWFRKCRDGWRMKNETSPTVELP
Assay explanation: Endothelial lipase (EL) enzymatic assay, fluorescent substrate A10070 in DMPG vesicles
Format: biochemical
Test conditions: EL from conditioned media of HT-1080 cells; compound preincubated 30 min at 37° C; read-out: EL IC50
Task for the reader: assign each of the following compounds its reported pIC50.
Units for pIC50: none; it is -log10 of a concentration expressed in mol/L.

Query string: Tell me measured pIC50 for CC1(Cc2nnc(C(c3nc4ccc(-c5ccnc(F)c5)cc4s3)S(=O)(=O)Cc3ccccc3)o2)NC(=O)NC1=O (single isomer, unassigned; isomer b) [Example 10] please.
Result string: 7.72

Query string: Tell me measured pIC50 for NS(=O)(=O)NCc1nnc(C(c2nc3ccc(C(=O)N4CCOCC4)cc3s2)S(=O)(=O)Cc2ccccc2)o1 (stereo not shown) [Example 189] please.
Result string: 7.89

Query string: Tell me measured pIC50 for CC1(Cc2nnc(C(c3nc4ccc(-c5cccc(C(=O)N6CC[C@H](F)C6)c5)cc4s3)S(C)(=O)=O)o2)NC(=O)NC1=O (stereo partly shown) [Example 228] please.
Result string: 6.94

====

Target of assay: Endothelial lipase (EL) (Homo sapiens)
Construct: HT-1080 cells that were transformed using RAGE technology (Athersys) to overexpress endogenous EL; endogenous in cells; conditioned medium used
Assay explanation: Endothelial lipase (EL) enzymatic assay, fluorescent substrate A10070 in DMPG vesicles
Format: biochemical
Test conditions: EL from conditioned media of HT-1080 cells; compound preincubated 30 min at 37° C; read-out: EL IC50
pIC50: −log10 of the molar value.
Property label: pIC50

Query string: Tell me measured pIC50 for CS(=O)(=O)C(c1nnc(CNS(N)(=O)=O)o1)c1nc2ccc(-c3ccccc3)cc2s1 (stereo not drawn) [Example 46] please.
Result string: > 8.00

Query string: Tell me measured pIC50 for NS(=O)(=O)NCc1nnc(C(c2nc3ccc(-c4ccc(F)cc4)cc3s2)S(=O)(=O)Cc2ccccc2)o1 (stereo not drawn) [Example 127] please.
Result string: > 8.00

Query string: Tell me measured pIC50 for NS(=O)(=O)NCc1nnc(C(c2nc3ccc(-c4cc(F)cc(Cl)c4)cc3s2)S(=O)(=O)Cc2ccccc2)o1 (stereo not drawn) [Example 144] please.
Result string: > 8.00

Query string: Tell me measured pIC50 for CC1(Cc2nnc(C(c3nc4ccc(-c5cccc(C(=O)N6CC[C@@H](F)C6)c5)cc4s3)S(C)(=O)=O)o2)NC(=O)NC1=O (stereo partly drawn) [Example 232] please.
Result string: 9.00

Query string: Tell me measured pIC50 for CC1(Cc2nnc(C(c3nc4ccc(-c5ccc(F)nc5)cc4s3)S(C)(=O)=O)o2)SC(=O)NC1=O (single isomer, unassigned; isomer b) [Example 18] please.
Result string: > 8.00

Query string: Tell me measured pIC50 for NS(=O)(=O)NCc1nnc(C(c2nc3ccc(-c4ccc(C(=O)N5CCOCC5)c(Cl)c4)cc3s2)S(=O)(=O)Cc2ccccc2)o1 (stereo not drawn) [Example 149] please.
Result string: > 8.00
